# measured-on: T1, recombinant biotinylated CD71 extracellular domain (Sino Biologics) with an N-terminal 6His tag (human, UniProt P02786 89-760, biotinylated (site not stated))
# T1 construct: extracellular domain; also called hCD71; huCD71 ECD
# assay-summary: primary solution ELISA screen, signal on hCD71 over HSA
Label t when hCD71:HSA >= 50; otherwise f.

{"columns": ["binder", "answer-label"],
 "data": [
  ["SEQ ID NO 57 (designed binder, not shown: small tags and cut ends, FN3 domain, hit of the apical domain panning) MLPAPKNLVVSRVTEDSARLSWTAPDAAFDSFAIPYAELSRNGEAIVLTVPGSERSYDLTGLKPGTEYTVLIHGVKGGCLSDPLSAIFTT", "f"],
  ["SEQ ID NO 17 (designed binder, not shown: small tags and cut ends, FN3 domain, hit of the apical domain panning) MLPAPKNLVVSRVTEDSARLSWTAPDAAFDSFPILYTECVYRGEAIVLTVPGSERSYDLTGLKPGTEYHVPITGVKGGGGSWPLSAIFTT", "t"],
  ["SEQ ID NO 16 (designed binder, not shown: small tags and cut ends, FN3 domain, hit of the apical domain panning) MLPAPKNLVVSRVTEDSARLSWTAPDAAFDSFGIAYREFRPSGEAIVLTVPGSERSYDLTVETGYRNEVVICGVKGGPWSGPLSAIFTT", "t"],
  ["SEQ ID NO 72 (designed binder, not shown: small tags and cut ends, FN3 domain, hit of the apical domain panning) MLPAPKNLVVSRVTEDSARLSWTAPDAAFDSFTIGYREWYWYGEAIVLTVPGSERSYDLTGLKPGTEYNVPISGVKGGLDSFPLSAIFTT", "f"]
]}
